studySystem: Steroid 17-alpha-hydroxylase/17,20 lyase (Homo sapiens, UniProt P05093)
Sequence (P05093 whole entry): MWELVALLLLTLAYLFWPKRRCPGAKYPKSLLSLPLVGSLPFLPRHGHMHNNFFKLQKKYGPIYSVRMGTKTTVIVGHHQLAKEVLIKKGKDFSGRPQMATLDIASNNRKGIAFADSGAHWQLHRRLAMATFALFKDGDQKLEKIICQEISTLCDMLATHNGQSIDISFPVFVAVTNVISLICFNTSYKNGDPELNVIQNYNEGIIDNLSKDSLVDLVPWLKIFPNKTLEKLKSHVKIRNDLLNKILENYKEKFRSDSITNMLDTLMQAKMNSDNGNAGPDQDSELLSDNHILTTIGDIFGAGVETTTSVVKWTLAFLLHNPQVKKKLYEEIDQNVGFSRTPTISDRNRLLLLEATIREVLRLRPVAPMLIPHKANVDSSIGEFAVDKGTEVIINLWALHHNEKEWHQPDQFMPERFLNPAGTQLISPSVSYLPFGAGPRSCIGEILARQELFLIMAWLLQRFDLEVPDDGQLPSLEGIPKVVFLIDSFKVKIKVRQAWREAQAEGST
propertyLabel: IC50 (µM)
Report only the number, with the unit µM understood.

Prompt: State its IC50 for this molecule: Oc1ccc(-c2ccc(Cn3ccnc3)cc2)cc1O
Completion: 0.12

Prompt: State its IC50 for this molecule: COc1ccc2c(c1)CCC(Cc1cnc[nH]1)=C2C
Completion: 0.11

Prompt: State its IC50 for this molecule: COc1cc2c(cc1OC)C(C)=C(Cc1cnc[nH]1)CC2
Completion: 0.49

Prompt: State its IC50 for this molecule: COc1cc2c(cc1O)C(C)=C(Cc1cnc[nH]1)CC2 [dihydronaphthalene derivative]
Completion: 1.1
